Data provenance is patent US11702404B2.

biological target: UniProtKB P43220; test: GLP-1R activation: cAMP increase in CHO cells stably expressing GLP-1R; format: cell-based; settings: cAMP increase, CHO cells stably expressing GLP-1R, 10 point dose response, 30 minutes incubation; read-out: EC50
Sequence (P43220 24-463): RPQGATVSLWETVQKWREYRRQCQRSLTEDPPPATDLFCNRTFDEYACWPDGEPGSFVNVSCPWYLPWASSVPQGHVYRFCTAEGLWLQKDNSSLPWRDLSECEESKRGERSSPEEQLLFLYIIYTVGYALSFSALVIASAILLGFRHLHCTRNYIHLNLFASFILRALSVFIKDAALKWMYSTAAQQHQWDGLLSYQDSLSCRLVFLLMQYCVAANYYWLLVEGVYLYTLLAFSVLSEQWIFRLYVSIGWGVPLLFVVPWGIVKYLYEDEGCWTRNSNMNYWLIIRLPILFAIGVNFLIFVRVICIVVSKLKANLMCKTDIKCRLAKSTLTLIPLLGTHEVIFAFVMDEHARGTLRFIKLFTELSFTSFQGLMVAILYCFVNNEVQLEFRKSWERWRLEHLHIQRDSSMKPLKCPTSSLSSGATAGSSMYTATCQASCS
value type: log10(EC50) (log10 of the value in nM)
Log scale reminder: EC50 in nM, then log10 taken.

Query string: Report measured log10(EC50); entry is N#Cc1ccc(COc2cccc(-c3ccc(Cc4nc5ccc(C(=O)O)cc5n4[C@@H]4CCOC4)c(F)c3)n2)c(F)c1 [Example 225]
Result string: 1.12

Query string: Quickly give me recorded log10(EC50) for COCCn1c(Cc2cc(F)c(-c3cccc(OCc4ccc(C(F)(F)F)cn4)n3)cc2F)nc2ccc(C(=O)O)cc21 [Example 868]
Result string: 0.74

Query string: Look up and state reported log10(EC50) for O=C(O)c1ccc2nc(Cc3ccc(-c4cccc(OCc5ccc(C(F)(F)F)cc5F)n4)cc3F)n(C[C@@H]3CCO3)c2c1 [Example 667]
Result string: -1.00

Query string: Hello, please tell me recorded log10(EC50) for this one: N#Cc1ccc(COc2cccc(-c3cc(F)c(Cc4nc5ccc(C(=O)O)cc5n4C4CCCC4(F)F)cc3F)n2)c(F)c1 (stereo not drawn) [Example 700]
Result string: 0.54

Query string: Tell me log10(EC50) reported for N#Cc1ccc(COc2cccc(-c3ccc(Cc4nc5ccc(C(=O)O)cc5n4CC4CCS4(=O)=O)c(F)c3)n2)c(F)c1 (single isomer, unassigned) [Example 69]
Result string: 1.08

Query string: Return log10(EC50) for the following compound: O=C(O)c1ccc2nc(Cc3ccc(-c4ccnc(OCc5ccc(C(F)F)cc5F)n4)c(F)c3)n(C[C@@H]3CCO3)c2c1 [Example 790]
Result string: -0.36

---

test: Microsomal stability, human liver microsomes (predicted hepatic clearance); conditions: predicted from in vitro microsomal stability data
value type: Predicted Hepatic Clearance (Pred. Cl.) (mL/min/kg)
Supply the numeric figure in mL/min/kg, leaving out any unit text.

Query string: Using known records, supply Predicted Hepatic Clearance (Pred. Cl.) for `COCCn1c(Cc2cc(F)c(-c3cccc(OCc4ccc(C(N)=O)nc4)n3)cc2F)nc2c(F)cc(C(=O)O)cc21`
Result string: 1.83

Query string: Name the recorded Predicted Hepatic Clearance (Pred. Cl.) of the item `COCCn1c(Cc2ccc(-c3cccc(OCc4ccc(C#N)cc4F)n3)cc2CF)nc2ccc(C(=O)O)cc21` in your answer.
Result string: 14.8

Query string: # return recorded Predicted Hepatic Clearance (Pred. Cl.) for input `COCCn1c(Cc2cc(F)c(-c3cccc(OCc4cc(C)c(C(F)(F)F)cc4F)n3)cc2F)nc2ccc(C(=O)O)cc21`
Result string: 2

Query string: Hello, please tell me recorded Predicted Hepatic Clearance (Pred. Cl.) for this one: `Cn1c(Cc2ccc(-c3cccc(OCc4ccc(C#N)cc4F)n3)cc2F)nc2ccc(C(=O)O)cc21`
Result string: 7.5

Query string: Find the measured Predicted Hepatic Clearance (Pred. Cl.) of `N#Cc1ccc(COc2cccc(-c3ccc(Cc4nc5ccc(C(=O)O)cc5n4Cc4cncn4C4CC4)c(F)c3)c2)c(F)c1` and report it.
Result string: 4.33

Query string: Return Predicted Hepatic Clearance (Pred. Cl.) for the following molecule: `COCCn1c(Cc2cc(F)c(-c3cccc(OCc4csc(Cl)c4)n3)cc2F)nc2ccc(C(=O)O)cc21`
Result string: 1.83

Query string: Identify measured Predicted Hepatic Clearance (Pred. Cl.) corresponding to `O=C(O)c1ccc2nc(Cc3c(F)cc(-c4cccc(OCc5ccc(C(F)F)cc5F)n4)c(F)c3F)n(CC34CC(CO3)C4)c2c1`
Result string: 7.67
